The origin of these recorded values is patent US20220195023A1.

As shown below, each of these binders has a reported Kd value.
# system-under-test: (NPNA)3 (Plasmodium falciparum)
# test-description: SPR, antibody on chip
Report the figure in nM without appending any unit label.

These recorded examples may help you get a feel for the data.
| binder | readout-value |
| --- | --- |
| AB-007051 (antibody, V domains shown) VH: QMQLVESGGGVVQPGRSLRLSCTASGFTFSTYAMHWVRQSPGQGLQWVAVISYHSRNKYYEDSVRGRFTISRDNSKNTLYLQMNSLRAEDTAVYYCARDGYSSSFFDFWGQGTLVTVSS VL: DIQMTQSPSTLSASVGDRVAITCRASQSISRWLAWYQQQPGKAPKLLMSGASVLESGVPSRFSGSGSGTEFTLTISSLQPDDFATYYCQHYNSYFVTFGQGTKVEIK | 5.19 |
| AB-007073 (antibody, V domains shown) VH: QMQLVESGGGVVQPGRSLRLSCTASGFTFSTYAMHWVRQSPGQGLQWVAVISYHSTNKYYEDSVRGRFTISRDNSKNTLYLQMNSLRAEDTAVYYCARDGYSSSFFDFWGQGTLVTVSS VL: DIQMTQSPSTLSASVGDRVAITCRASQSISRWLAWYQQQPGKAPKLLMSGASVLESGVPSRFSGSGSGTEFTLTISSLQPDDFATYYCQHYNSHFVTFGQGTKVEIK | 72 |
| AB-007041 (antibody, V domains shown) VH: QMQLVESGGGVVQPGRSLRLSCTASGFTFSDYAMHWVRQSPGQGLQWVAVISYHSTNKYYEDSVRGRFTISRDNSKNTLYLQMNSLRAEDTAVYYCARDGYSSSFFDFWGQGTLVTVSS VL: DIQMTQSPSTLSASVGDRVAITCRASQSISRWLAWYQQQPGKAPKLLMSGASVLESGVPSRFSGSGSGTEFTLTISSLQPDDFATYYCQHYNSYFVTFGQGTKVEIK | 5.64 |

[ask] Find the recorded Kd belonging to AB-007074 (antibody, V domains shown) VH: QMQLVESGGGVVQPGRSLRLSCAASGFTFSTYAMHWVRQAPGQGLQWVAVISYHSTNKYYEDSVRGRFTISRDNSKNTLYLQMNSLRAEDTAVYYCARDGYSSSFFDFWGQGTLVTVSS VL: DIQMTQSPSTLSASVGDRVTITCRASQSISRWLAWYQQQPGKAPKLLMSGASVLESGVPSRFSGSGSGTEFTLTISSLQPDDFATYYCQHYNSYYVTFGQGTKVEIK and report it.
[reply] 8.94

[ask] Find the recorded Kd belonging to AB-007033 (antibody, V domains shown) VH: QMQLVESGGGVVQPGRSLRLSCAASGFTFSTYAMHWVRQAPGQGLEWVAVISYHSTNKYYADSVRGRFTISRDNSKNTLYLQMNSLRAEDTAVYYCARDGYSSSFFDFWGQGTLVTVSS VL: DIQMTQSPSTLSASVGDRVTITCRASQSISRWLAWYQQQPGKAPKLLMSGASVLESGVPSRFSGSGSGTEFTLTISSLQPDDFATYYCQHYNSYFVTFGQGTKVEIK and report it.
[reply] 8.02
